assay: AUC (0 to 24 hrs) in mouse at 100 mg/kg, po; assay type: ADME, organism-based; parameters: time < 24 hr, dose 100 mg/kg, route oral; details: plasma
outcome-measure: AUC(0-t) at 24 h
Field note: include the unit after the figure.

compound Cn1cncc1[C@@](N)(c1ccc(C#N)cc1)c1cc2cc(C#N)cc(-c3cccc(F)c3)c2o1 , AUC(0-t) at 24 h observed: 31300 ng·h/mL

====

test: Half life in mouse at 25 mg/kg, iv; type: ADME, organism-based; set-up: dose 25 mg/kg, route intravenous; details: in vivo
outcome-measure: half-life (h)
Expressed in h, but write only the number.

Note to self: half-life recorded for Cn1cncc1[C@@](N)(c1ccc(C#N)cc1)c1cc2cc(C#N)cc(-c3cccc(F)c3)c2o1 was 1.2
